Test system: RAW-Dual (murine macrophage reporter line)
Assay: NF-kB reporter (SEAP) activity fold change vs agonist alone; higher = enhanced NF-kB activity
Conditions: modulator concentration 10 µM; agonist: MPLA […]
Respond with 1 for NF-kB reporter values of 1 and above, -1 for values below.

molecule	tested_system	label
COc1ccc(CN2CCN(C(c3ccc(F)cc3)c3ccc(F)cc3)CC2)c(OC)c1OC.Cl.Cl	RAW-Dual (murine macrophage reporter line)	-1
CCOC(=O)C1=C(C)NC(C)=C(C(=O)OCC)C1c1ccc(F)cc1	RAW-Dual (murine macrophage reporter line)	1
CC[C@H](Nc1ncnc2[nH]cnc12)c1nc2cccc(F)c2c(=O)n1-c1ccccc1	RAW-Dual (murine macrophage reporter line)	1
C#Cc1cccc(Nc2ncnc3cc(OC)c(OCCCCCCC(=O)NO)cc23)c1	RAW-Dual (murine macrophage reporter line)	1
CC(=O)c1ccc(NC(=O)c2ccccc2C(=O)O)cc1	RAW-Dual (murine macrophage reporter line)	1
O=c1cc(-c2ccc(O)cc2)oc2cc(OC3OC(CO)C(O)C(O)C3O)cc(O)c12 (stereo not given)	RAW-Dual (murine macrophage reporter line)	1
O=C(Nc1nc2ccccc2n1CCN1CCOCC1)C1CCCCC1	RAW-Dual (murine macrophage reporter line)	-1
